- Test system: foxtail, giant
- ASSAY PROCEDURE: Test A preemergence
- Type: in vivo, Setaria faberi
- CONDITION: 1000 g ai/ha, 0 to 100 scale (0 no effect, 100 complete control), 10 days
Plant response rating, Foxtail, Giant vs 20: less than gives Condition met; not less than gives Condition not met.

See these solved cases before continuing.
> print(dat)
                                   compound              label
1  CC1CN(C(=O)c2ccnc(-n3cncn3)c2)c2ccccc2O1 (stereo not shown) [Compound 19]  Condition not met
2  Cc1csc(-c2cccc(C(=O)N3C[C@H](C)Oc4c(Cl)cccc43)c2)n1  Condition not met
3  CC(C)C1CN(C(=O)c2ccnc(-n3cncn3)c2)c2cccc(Cl)c2O1 (stereo not shown)      Condition met
4  CCC1CN(C(=O)c2ccnc(-n3cncn3)c2)c2cccc(Cl)c2O1 (single isomer, unassigned)  Condition not met
5  CC1CN(C(=O)c2ccnc(-n3cncn3)c2)c2cccc(Cl)c2O1 (stereo not shown)  Condition not met

Qu. Is Plant response rating, Foxtail, Giant of Cc1cccc2c1O[C@@H](C)CN2C(=O)c1cccc(-n2cc(Cl)cn2)c1 strictly below 20?
Ans. Condition met

Qu. // next record O=C(c1ccnc(-n2cncn2)c1)N1CC(CF)Oc2c(Cl)cccc21 (stereo not shown)
Ans. Condition not met

---

- Test system: barnyardgrass
- ASSAY PROCEDURE: Test D flooded paddy test
- Type: in vivo, Echinochloa crus-galli
- CONDITION: 250 g ai/ha, applied to paddy water, visual rating after 13 to 14 days, scale 0 to 100 (0 no effect, 100 complete control)
Give measured Plant response rating, Barnyardgrass (Flood) for each item. Keep answers brief.
Numbers only.

Completed entries (count: 8):
> print(dat)
                                   compound  reading
1  Cc1ccc(-n2cnc(C[S+](C)[O-])n2)cc1C(=O)N1C[C@H](C)Oc2c(Cl)cccc21 (stereo partly drawn) [Compound 224]       10
2  COC[C@H]1CN(C(=O)c2cc(-n3cnc(C(C)C)n3)ccc2C)c2cccc(Cl)c2O1 [Compound 313]       35
3  CCn1cnc(-c2cccc(C(=O)N3C[C@H](C)Oc4c(Cl)cccc43)c2)n1 [Compound 173]        0
4  CC(C)c1ncn(-c2cc3c(c(C(=O)N4C[C@H](C)Oc5c(Cl)cccc54)c2)OCCCO3)n1 [Compound 158]       25
5  CCOC[C@H]1CN(C(=O)c2cc(-n3cnc(C(C)(C)C)n3)cc3c2OCCO3)c2cccc(Cl)c2O1 [Compound 388]        0
6  COC[C@H]1CN(C(=O)c2cc(-n3cnc(C4CC4)n3)ccc2OC)c2cccc(Cl)c2O1 [Compound 235]       10
7  CCc1ncn(-c2ccc(OC)c(C(=O)N3C[C@H](C)Oc4c(C)cccc43)c2)n1 [Compound 211]       55
8  COC[C@H]1CN(C(=O)c2cc(-n3cnc(C(C)(C)C)n3)cc3c2OCCO3)c2cccc(Cl)c2O1 [Compound 382]       50

# per-item lookup of Plant response rating, Barnyardgrass (Flood); items listed below
1. Cc1nnc(-c2cccc(C(=O)N3C[C@H](C)Oc4c(Cl)cccc43)c2)o1 [Compound 355]
2. C[C@H]1CN(C(=O)c2cccc(-c3ncccn3)c2)c2cccc(Cl)c2O1 [Compound 203]
3. Cc1ccc(-n2cnc(C(C)O)n2)cc1C(=O)N1CC(C)Oc2c(Cl)cccc21 (mixture of isomers) [Compound 358]
4. CC(C)c1ncn(-c2cc(C(=O)N3CC(C(F)(F)F)Oc4c(Cl)cccc43)ccn2)n1 (single isomer, unassigned) [Compound 331]
5. Cc1ccc(-n2cnc(C(C)(C)C)n2)cc1C(=O)N1CC(C(F)(F)F)Oc2c(Cl)cccc21 (stereo not drawn) [Compound 350]
6. CC(C)n1cnc(-c2cccc(C(=O)N3C[C@H](C)Oc4c(Cl)cccc43)c2)n1 [Compound 172]
7. CC(C)c1ncn(-c2ccc(OS(C)(=O)=O)c(C(=O)N3C[C@H](C)Oc4c(Cl)cccc43)c2)n1 [Compound 338]
8. CC(C)c1ncn(-c2ccc([S+](C)[O-])c(C(=O)N3C[C@H](C)Oc4c(Cl)cccc43)c2)n1 (stereo partly drawn) [Compound 394]

Ans.
1: 0; 2: 0; 3: 30; 4: 0; 5: 0; 6: 0; 7: 10; 8: 15
